Where these numbers come from: PubChem BioAssay (NCI)

Tested on: LXFL 529 NSCLC
Experiment: NCI tumour cell line growth inhibition, 48 h
endpoint.name: TGI

compound	TGI
N#CC(C(=O)/C(=N/NC(=O)c1ccccc1O)C(C#N)c1ccc(Br)cc1)c1ccc(Br)cc1 (stereo not drawn)	13.4 µM
CC(=O)NNc1nc(C)c(C(/C=C/c2ccc(Cl)cc2)=N\N=C(N)N)s1	> 100 µM
O=C1C(Cl)=C(Cl)C(=O)N1c1ccccc1Cl	> 86.3 µM

q: Query (compound): COc1cccc(N2C(=O)/C(=C/c3ccc(N(CCC#N)CCC#N)cc3)N=C2c2cc([N+](=O)[O-])ccc2Cl)c1 ; field requested: TGI
a: > 100 µM

q: Would you mind doing O=C(CN(Cc1ccccc1)Cc1ccccc1)N1CCc2c([nH]c3ccccc23)C1c1cccnc1 (stereo not drawn) as well?
a: > 100 µM
